I'd appreciate it if you could supply Cyno Primary Hepatocyte Editing % 100 values for the items below.
- Tested on: PCSK9 gene
- procedure_text: PCSK9 gRNA/SpCas9 editing in primary cynomolgus hepatocytes (Tables 2, 22)
- Type: cell-based, cynomolgus monkey
- measurement_setup: 100 ng/RNA/mL; SpCas9 mRNA MS002 1:1 by weight
In the oligonucleotide strings, read from the 5' end, every base follows the letter of its sugar. An asterisk marks phosphorothioate; unmarked linkages are phosphodiester. Other units and linkages are bracketed, terminal groups are in braces. A string of capitals states the bases alone. m = 2'-O-methyl; r = 2'-OH (RNA)
Give just the number in %; leave the unit off.

I'd like to know its Cyno Primary Hepatocyte Editing % 100. The molecule in question is GA170: PCSK9 gRNA; protospacer CCAGGACCGCCTGGAGCTGA (SEQ ID NO: 164) (nucleic acid, sugars from the 5' end m3 r94 m3, linkages s3 o93 s3 (s phosphorothioate, o phosphodiester), T or U not given here) guide: CCAGGACCGCCUGGAGCUGAGUUUUAGAGCUAGAAAUAGCAAGUUAAAAUAAGGCUAGUCCGUUAUCAACUUGAAAAAGUGGCACCGAGUCGGUGCUUUU 4.03

Another molecule: GA224: PCSK9 gRNA; protospacer GGCCGCTGACCACCCCTGCC (SEQ ID NO: 218) (nucleic acid, sugars from the 5' end m3 r94 m3, linkages s3 o93 s3 (s phosphorothioate, o phosphodiester), T or U not given here) guide: GGCCGCUGACCACCCCUGCCGUUUUAGAGCUAGAAAUAGCAAGUUAAAAUAAGGCUAGUCCGUUAUCAACUUGAAAAAGUGGCACCGAGUCGGUGCUUUU 2.61

Next up: GA178: PCSK9 gRNA; protospacer CTCCTTCAGCACCACCACGT (SEQ ID NO: 172) (nucleic acid) guide: mC*mU*mC*rCrUrUrCrArGrCrArCrCrArCrCrArCrGrUrGrUrUrUrUrArGrArGrCrUrArGrArArArUrArGrCrArArGrUrUrArArArArUrArArGrGrCrUrArGrUrCrCrGrUrUrArUrCrArArCrUrUrGrArArArArArGrUrGrGrCrArCrCrGrArGrUrCrGrGrUrGrCrU*mU*mU*mU 2.21

Entry GA193: PCSK9 gRNA; protospacer GGGGCTGGTATTCATCCGCC (SEQ ID NO: 187) (nucleic acid, sugars from the 5' end m3 r94 m3, linkages s3 o93 s3 (s phosphorothioate, o phosphodiester), T or U not given here) guide: GGGGCUGGUAUUCAUCCGCCGUUUUAGAGCUAGAAAUAGCAAGUUAAAAUAAGGCUAGUCCGUUAUCAACUUGAAAAAGUGGCACCGAGUCGGUGCUUUU please 8.70

How about this molecule: GA177: PCSK9 gRNA; protospacer GGTCGCCACTCATCTTCACC (SEQ ID NO: 171) (nucleic acid, sugars from the 5' end m3 r94 m3, linkages s3 o93 s3 (s phosphorothioate, o phosphodiester), T or U not given here) guide: GGUCGCCACUCAUCUUCACCGUUUUAGAGCUAGAAAUAGCAAGUUAAAAUAAGGCUAGUCCGUUAUCAACUUGAAAAAGUGGCACCGAGUCGGUGCUUUU 0.38

Thanks! And GA211: PCSK9 gRNA; protospacer TGCGCGTGCTCAACTGCCAA (SEQ ID NO: 205) (nucleic acid, sugars from the 5' end m3 r94 m3, linkages s3 o93 s3 (s phosphorothioate, o phosphodiester), T or U not given here) guide: UGCGCGUGCUCAACUGCCAAGUUUUAGAGCUAGAAAUAGCAAGUUAAAAUAAGGCUAGUCCGUUAUCAACUUGAAAAAGUGGCACCGAGUCGGUGCUUUU ? 1.01
